- study.target: Tyrosine-protein kinase Blk (Homo sapiens) (UniProt P51451)
- Sequence (P51451 2-505 limits assumed): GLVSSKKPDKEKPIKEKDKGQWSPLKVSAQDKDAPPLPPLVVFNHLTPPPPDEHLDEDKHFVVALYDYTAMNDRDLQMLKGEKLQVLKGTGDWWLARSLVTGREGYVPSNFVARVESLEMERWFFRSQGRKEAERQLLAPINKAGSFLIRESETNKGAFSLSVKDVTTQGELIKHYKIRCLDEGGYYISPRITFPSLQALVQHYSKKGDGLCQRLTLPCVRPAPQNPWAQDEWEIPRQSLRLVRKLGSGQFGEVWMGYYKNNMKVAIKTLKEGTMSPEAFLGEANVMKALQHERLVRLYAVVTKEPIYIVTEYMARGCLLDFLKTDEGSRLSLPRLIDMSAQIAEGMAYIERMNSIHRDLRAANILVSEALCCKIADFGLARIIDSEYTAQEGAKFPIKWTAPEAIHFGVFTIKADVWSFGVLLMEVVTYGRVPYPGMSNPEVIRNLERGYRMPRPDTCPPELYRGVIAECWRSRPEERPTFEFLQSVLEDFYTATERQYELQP
- settings: at 1 µM
Class met: residual activity at least 40%. Class not met: residual activity below 40%.

Record excerpt, results attached:
O=C1Nc2ccc3ncsc3c2/C1=C/c1c[nH]cn1 | met
CCc1nc(-c2ccc(OC)cc2)[nH]c1-c1ccncc1 | met
COc1cc(OC)c(/C=C2\C(=O)Nc3ccccc32)c(OC)c1 | met
O=[N+]([O-])/C=C/c1ccc2c(c1)OCO2 | met
COc1cc2ncnc(Nc3ccc(OCc4ccccc4)cc3)c2cc1OC | met

Threshold query (residual activity >= 40%) on `CC(C)[C@H](CO)Nc1nc(Nc2cccc(Cl)c2)c2ncn(C(C)C)c2n1`
not met

----------
- study.target: Tyrosine-protein kinase Fyn (Homo sapiens)
- settings: at 10 µM
Mark Yes only for residual activity values smaller than 20%; exact matches and larger values are No.

COc1cc2ncnc(Nc3ccc(OCc4ccccc4)cc3)c2cc1OC | No
COc1ccc2c(c1)/C(=C/c1cnc[nH]1)C(=O)N2 | No
COc1cc(OC)c(/C=C2\C(=O)Nc3ccccc32)c(OC)c1 | No
c1cc(-c2cnn3cc(-c4ccc(OCCN5CCCCC5)cc4)cnc23)ccn1 | Yes

Lab note: residual activity threshold 20%. Does this compound come in strictly under it? `O=c1[nH]c2ccccc2n1C1CCN(Cc2ccc(-c3nc4cc5[nH]cnc5cc4nc3-c3ccccc3)cc2)CC1`
No

----------
- study.target: Testis-specific serine/threonine-protein kinase 1 (Homo sapiens) (UniProt Q9BXA7)
- Sequence (whole entry): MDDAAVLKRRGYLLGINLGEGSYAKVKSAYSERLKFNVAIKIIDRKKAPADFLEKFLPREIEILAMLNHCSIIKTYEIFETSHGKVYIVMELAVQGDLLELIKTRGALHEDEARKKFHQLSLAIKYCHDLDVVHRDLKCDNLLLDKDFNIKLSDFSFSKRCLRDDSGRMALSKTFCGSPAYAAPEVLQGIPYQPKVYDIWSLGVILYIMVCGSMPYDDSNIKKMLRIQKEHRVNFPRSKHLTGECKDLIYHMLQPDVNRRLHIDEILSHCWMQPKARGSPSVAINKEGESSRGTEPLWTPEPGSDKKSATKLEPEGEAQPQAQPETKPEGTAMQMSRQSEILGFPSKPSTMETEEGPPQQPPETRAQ
- settings: at 10 µM
measured.quantity: residual activity (%)
Write the answer as a number in %, unit excluded.

Worked cases, residual activity given:
COc1cc(OC)c(/C=C2\C(=O)Nc3ccccc32)c(OC)c1 | 91
CC(C)(C)c1cc(C=C(C#N)C#N)cc(Br)c1O | 101
CCn1cnc2c(Nc3cccc(Cl)c3)nc(N[C@@H]3CCCC[C@@H]3N)nc21 | 40
CC(C)[C@H](CO)Nc1nc(Nc2cccc(Cl)c2)c2ncn(C(C)C)c2n1 | 72

So what does the record say about residual activity for `O=C1NC(=O)c2c1c1c3ccccc3n3c1c1c2c2ccccc2n1C1CCC3O1` ?
70

How about `c1cc(-c2cnn3cc(-c4ccc(OCCN5CCCCC5)cc4)cnc23)ccn1` ?
45

----------
- study.target: Serine/threonine-protein kinase BRSK1 (Homo sapiens) (UniProt Q8TDC3)
- Sequence (Q8TDC3 whole entry): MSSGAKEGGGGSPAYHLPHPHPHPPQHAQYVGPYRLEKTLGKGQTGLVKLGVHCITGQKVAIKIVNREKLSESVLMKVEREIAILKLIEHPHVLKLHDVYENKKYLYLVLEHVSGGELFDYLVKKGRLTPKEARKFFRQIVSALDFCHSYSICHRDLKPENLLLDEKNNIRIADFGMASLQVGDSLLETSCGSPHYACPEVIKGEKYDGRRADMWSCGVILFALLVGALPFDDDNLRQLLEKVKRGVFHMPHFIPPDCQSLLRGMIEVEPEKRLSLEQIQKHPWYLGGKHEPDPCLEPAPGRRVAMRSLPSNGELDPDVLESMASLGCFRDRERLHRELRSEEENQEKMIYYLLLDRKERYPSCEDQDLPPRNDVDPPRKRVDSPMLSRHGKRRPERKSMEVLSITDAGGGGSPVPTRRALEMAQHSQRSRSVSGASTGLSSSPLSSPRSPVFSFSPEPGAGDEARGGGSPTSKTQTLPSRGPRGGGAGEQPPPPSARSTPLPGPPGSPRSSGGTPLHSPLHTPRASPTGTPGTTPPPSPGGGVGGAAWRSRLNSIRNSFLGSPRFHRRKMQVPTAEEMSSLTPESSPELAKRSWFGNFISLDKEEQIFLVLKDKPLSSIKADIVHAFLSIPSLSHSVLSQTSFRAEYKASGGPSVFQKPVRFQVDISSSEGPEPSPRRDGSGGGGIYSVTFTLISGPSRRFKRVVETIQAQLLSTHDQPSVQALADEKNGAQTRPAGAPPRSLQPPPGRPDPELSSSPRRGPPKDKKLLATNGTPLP
- settings: at 1 µM
Listed compounds paired with reported residual activity
Give the value in % but do not write % after it.

COc1cc2ncnc(Nc3ccc(OCc4ccccc4)cc3)c2cc1OC | 91
c1cc(-c2cnn3cc(-c4ccc(OCCN5CCCCC5)cc4)cnc23)ccn1 | 86
O=[N+]([O-])/C=C/c1ccc2c(c1)OCO2 | 92

Reported residual activity, compound `N/C(=N\[N+](=O)[O-])N/N=C\c1ccc(-c2cccc([N+](=O)[O-])c2)o1` : ____
89

// repeat for C[S+]([O-])c1ccc(-c2nc(-c3ccc(F)cc3)c(-c3ccncc3)[nH]2)cc1 (centres undefined) and report
104

Moving on to the next compound: `COc1ccc2c(c1)/C(=C/c1cnc[nH]1)C(=O)N2`
45

Let us now turn to `COc1ccc2c(c[n+](C)c3c4cc5c(cc4ccc23)OCO5)c1OC`
47

Same read-out for `COc1cc(OC)c(/C=C2\C(=O)Nc3ccccc32)c(OC)c1` ?
91

Follow-up entry: `CCn1cnc2c(Nc3cccc(Cl)c3)nc(N[C@@H]3CCCC[C@@H]3N)nc21`
91
